Cytotoxicity: recorded values
Tested on: Vero
Assay: Cytotoxicity against BSCL and Vero cells
Format: functional, Chlorocebus sabaeus
Give a bare numeral; the unit mm is implied.

CC(=O)/C(=C\[C@@H]1O[C@H](c2ccccc2)O[C@H](CC(=O)Oc2ccccc2)[C@H]1C(=O)Oc1ccccc1)C(=O)Nc1ccccc1 : 4

[in] Which Cytotoxicity is listed for `CC(=O)/C(=C\[C@@H]1O[C@H](c2ccccc2)O[C@@H]2CO[C@@H](c3ccccc3)O[C@@H]12)C(=O)c1ccccc1` ?
[out] 14

[in] Which Cytotoxicity is listed for `CC(=O)C(=C[C@@H]1O[C@H](c2ccccc2)O[C@@H]2CO[C@@H](c3ccccc3)O[C@@H]12)C(C)=O` ?
[out] 10

[in] Which Cytotoxicity is listed for `O=C[C@@H]1O[C@H](c2ccccc2)O[C@@H]2CO[C@@H](c3ccccc3)O[C@@H]12` ?
[out] 8
